assay.target: MC4r (Homo sapiens)
test.method.notes: cAMP functional study in human MC4r expression system approximating maximal physiologic receptor densities
Format: cell-based
Design: host or cells: TREx-293
assay.context: low receptor density human MC4r system
observed.property: EC50 (nM)

CC(=O)N1CCC(N(CC(C)C)N2CCN(C(=O)[C@@H](Cc3ccc(Cl)cc3)NC(=O)C3(C)CCCN3)CC2)CC1 (stereo partly drawn): 6

A = CC(C)CN(C1CCN(C(=O)CO)CC1)N1CCN(C(=O)[C@@H](Cc2ccc(Cl)cc2)NC(=O)C(C)(C)N)CC1
B = CCC(N)(CC)C(=O)N[C@H](Cc1ccc(Cl)cc1)C(=O)N1CCN(N(CC(C)C)C2CCN(C(C)=O)CC2)CC1
C = CCNC(=O)N1CCC(N(CC(C)C)N2CCN(C(=O)[C@@H](Cc3ccc(Cl)cc3)NC(=O)C(C)(C)N)CC2)CC1
Q. Descending sort on EC50 required. List the labels, following the order given in the request.
A. C, B, A
(C: 52 nM, B: 25 nM, A: 9 nM)

###

test.method.notes: Plasma concentrations following oral administration in Sprague-Dawley rats
Format: in vivo, rat
assay.context: rat, plasma, oral 30 mg/kg
observed.property: Cmax (ng/mL)
Unit ng/mL implied. Number only.

Q. GET /values?readout=Cmax&item= CC(=O)N1CCC(N(CC(C)C)N2CCN(C(=O)[C@@H](Cc3ccc(Cl)cc3)NC(=O)C(C)(C)N)CC2)CC1 [Compound 7.1]
A. 780

###

assay.target: MC4r (Homo sapiens, UniProt P32245)
Sequence (P32245 whole entry): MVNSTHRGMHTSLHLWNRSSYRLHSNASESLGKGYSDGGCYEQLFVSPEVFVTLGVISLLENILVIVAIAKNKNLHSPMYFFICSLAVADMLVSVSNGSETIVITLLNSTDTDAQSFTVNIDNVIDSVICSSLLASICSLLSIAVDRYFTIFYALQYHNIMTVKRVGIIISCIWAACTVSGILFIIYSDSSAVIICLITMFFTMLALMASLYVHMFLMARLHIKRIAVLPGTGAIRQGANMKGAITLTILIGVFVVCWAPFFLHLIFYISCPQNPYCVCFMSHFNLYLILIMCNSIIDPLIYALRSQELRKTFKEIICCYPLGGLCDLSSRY
test.method.notes: Competitive inhibition binding assay, MC4r
Set-up: expressed in transfected cells; host or cells: HEK-293 (membrane homogenates)
assay.context: binding studies
observed.property: Ki (nM)

These solved cases illustrate the format of a correct answer.
CC(=O)N1CCC(N(CC(C)C)N2CCN(C(=O)[C@@H](Cc3ccc(Cl)cc3)NC(=O)C3(N)CCCCCC3)CC2)CC1 [Compound 7.7]: 3
CC(=O)N1CCC(N(CC(C)C)N2CCN(C(=O)[C@@H](Cc3ccc(Cl)cc3)NC(=O)C3(N)CC3)CC2)CC1 [Compound 7.2]: 5
CC(=O)N1CCC(N(CC(C)C)N2CCN(C(=O)[C@@H](Cc3ccc(Cl)cc3)NC(=O)C3(N)CCCC3)CC2)CC1 [Compound 7.4]: 4

1 = CC(=O)N1CCC(N(CC(C)C)N2CCN(C(=O)[C@@H](Cc3ccc(Cl)cc3)NC(=O)C3(C)CCCN3)CC2)CC1 (stereo partly shown) [Compound 7.11]
2 = CC(=O)N1CCC(N(CC(C)C)N2CCN(C(=O)[C@@H](Cc3ccc(Cl)cc3)NC(=O)C3(N)CCC3)CC2)CC1 [Compound 7.3]
Q. Identify the item whose Ki is the smaller number: 1 or 2 Reply briefly: the label of your chosen item.
A. 2
